ASSAY_METHOD_TEXT: qHTS for Inhibitors of human tyrosyl-DNA phosphodiesterase 1 (TDP1): qHTS in cells in presence of CPT; also: nearly all actives have a fitted effect of over 55% in size
CONDITION_CONTEXT: chicken DT40 Tdp1-/-;hTDP1 cells + 20 nM CPT, ATP luminescence, 48 h; series mostly up to 46.2 µM
The campaign covered roughly 420,000 compounds. About 50,000 (12%) were called active. Roughly 26% stayed inconclusive and do not appear here. Calls follow the shape of the dose curve; as a rule, active = well fitted inhibition curve with a large enough effect; inconclusive = small, poorly fitted or top-dose-only effect; inactive = flat fitted curve, though single readings scatter. This is one part of a sample in which actives are shown more often than they occur.
Response enum: active, inactive

Query: Hello, I am checking results. What call was entered for CCn1cc2nc(SCc3cccc(F)c3)n(CCc3ccccc3)c(=O)c2n1 ?
Response: active

Query: Hello, I am checking results. What call was entered for O=C(CSc1nnc(-c2ccccc2O)o1)NC1CCCCC1 ?
Response: inactive

Query: Hello, I am checking results. What call was entered for CCOC(=O)c1cn(CC)c2cc(F)c(F)cc2c1=O ?
Response: inactive

Query: Hello, I am checking results. What call was entered for CCCC(=O)C1CCN(Cc2ccccc2)CC1 ?
Response: inactive

Query: Hello, I am checking results. What call was entered for COc1ccc(NC(=O)COC(=O)c2n[nH]c3ccccc23)c(OC)c1 ?
Response: inactive

Query: Hello, I am checking results. What call was entered for CCOc1ccc(C2C3=C(CCCC3=O)N(CC(=O)O)C3=C2C(=O)CCC3)cc1 ?
Response: inactive

Query: Hello, I am checking results. What call was entered for CC(=O)N1CC[n+]2c(-c3ccc([N+](=O)[O-])cc3)csc21 ?
Response: active

Query: Hello, I am checking results. What call was entered for Cc1cccc(C(=O)N2CCN(S(=O)(=O)N3CCCCC3)CC2)c1 ?
Response: inactive

Query: Hello, I am checking results. What call was entered for O=C(CNC(=O)c1ccccc1F)c1ccc(Br)cc1 ?
Response: inactive

Query: Hello, I am checking results. What call was entered for Cc1ccccc1OCCC(=O)OCC(=O)NCCc1ccc(S(N)(=O)=O)cc1 ?
Response: inactive

Query: Hello, I am checking results. What call was entered for O=[N+]([O-])c1ccc(N2CCNCC2)cc1NCc1cccnc1 ?
Response: inactive

----------
ASSAY_METHOD_TEXT: qHTS for Inhibitors of human tyrosyl-DNA phosphodiesterase 1 (TDP1): qHTS in cells in presence of CPT; also: nearly all actives have a fitted effect of over 55% in size; also: potency is read from the fitted curve at half-maximal effect
CONDITION_CONTEXT: chicken DT40 Tdp1-/-;hTDP1 cells + 20 nM CPT, ATP luminescence, 48 h; series mostly up to 46.2 µM
The campaign covered roughly 420,000 compounds. About 50,000 (12%) were called active. Another 26% or so got no clear call; they are omitted. Many of the other results were omitted from the sample, so actives are more common in it than they were.
OBSERVABLE: Potency

Example cases with answers are listed next.
>>> recorded_result("O=C(Nc1cccc(C(F)(F)F)c1)c1cnccn1")
"inactive"
>>> recorded_result("CC(=O)CSc1nc(CCc2ccccc2)c(C#N)c(=O)[nH]1")
"inactive"
>>> recorded_result("CCCOc1ccc(N2CC(C(=O)Nc3ccccn3)CC2=O)cc1 (stereo not drawn)")
"inactive"
>>> recorded_result("CCOC(=O)c1ccccc1NC(=O)c1sc2nc(-c3ccc(F)cc3)cn2c1C")
"inactive"
>>> recorded_result("O=C(CN1C(=O)C2C3CCC(C3)C2C1=O)Oc1ccc2ccccc2c1 (stereo not drawn)")
"inactive"

Query: For the compound shown here, Cn1c(N)cc(=O)n(C)c1=S , give the reported Potency.
Response: inactive

Query: For the compound shown here, CC(C)C(=O)NC(NC(=S)NC1CCS(=O)(=O)C1)C(Cl)(Cl)Cl (stereo not drawn) , give the reported Potency.
Response: inactive
